Recorded IC50 by entry
- target-or-test-system: SAE (Homo sapiens, UniProt Q9UBT2)
- Construct: endogenous in cells; host or cells: HCT116
- Sequence (Q9UBT2 1-640): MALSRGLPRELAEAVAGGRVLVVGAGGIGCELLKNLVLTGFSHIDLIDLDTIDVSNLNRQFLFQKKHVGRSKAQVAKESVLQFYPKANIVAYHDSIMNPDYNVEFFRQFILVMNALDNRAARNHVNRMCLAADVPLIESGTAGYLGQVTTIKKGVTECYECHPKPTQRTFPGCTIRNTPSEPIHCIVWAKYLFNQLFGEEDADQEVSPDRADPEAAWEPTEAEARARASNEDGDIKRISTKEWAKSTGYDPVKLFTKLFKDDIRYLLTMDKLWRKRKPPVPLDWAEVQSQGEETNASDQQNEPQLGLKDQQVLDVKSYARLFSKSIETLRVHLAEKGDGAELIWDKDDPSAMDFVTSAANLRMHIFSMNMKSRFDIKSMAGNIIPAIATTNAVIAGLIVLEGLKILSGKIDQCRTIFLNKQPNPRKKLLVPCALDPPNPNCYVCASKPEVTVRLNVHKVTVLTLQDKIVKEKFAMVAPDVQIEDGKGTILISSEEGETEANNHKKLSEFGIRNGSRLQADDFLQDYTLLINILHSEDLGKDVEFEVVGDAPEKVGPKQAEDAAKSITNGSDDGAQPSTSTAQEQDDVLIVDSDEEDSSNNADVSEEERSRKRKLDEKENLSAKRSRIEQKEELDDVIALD
- Sequence (Q9UBE0 1-346): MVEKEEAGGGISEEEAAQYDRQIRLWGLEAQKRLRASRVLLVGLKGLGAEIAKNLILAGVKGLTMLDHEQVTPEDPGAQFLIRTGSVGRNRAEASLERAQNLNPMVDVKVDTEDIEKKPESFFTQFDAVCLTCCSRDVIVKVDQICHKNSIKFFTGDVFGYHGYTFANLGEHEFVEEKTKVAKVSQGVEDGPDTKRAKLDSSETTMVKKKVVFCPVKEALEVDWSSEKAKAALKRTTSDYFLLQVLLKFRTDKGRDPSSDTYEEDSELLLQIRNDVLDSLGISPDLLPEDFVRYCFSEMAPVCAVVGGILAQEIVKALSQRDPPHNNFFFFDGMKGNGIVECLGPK
- assay-overview: SUMO IF: in vitro inhibitory activity assay against SAE in HCT116 cells (SUMO-2/3 immunofluorescence)
- Type: cell-based
- condition-summary: class symbols, 6 h at 37° C.

# count of solved cases: 2
NS(=O)(=O)CC[C@H]1[C@H](F)[C@@H](Nc2ncncc2C(=O)c2cc3c(s2)CCC[C@@]32NCCc3ccc(Cl)cc32)C[C@@H]1O [Compound 637] ... > 0.2 µM
NS(=O)(=O)OC[C@H]1[C@H](F)[C@@H](Nc2ncncc2C(=O)c2cc3c(s2)CCC32OCCc3ccc(F)cc32)C[C@@H]1O (stereo partly drawn) [Compound 747] ... 0.05 to 0.2 µM

Query: Consider the compound NS(=O)(=O)OC[C@H]1[C@H](F)[C@@H](Nc2ncncc2C(=O)c2cc3c(s2)OCC32NCCc3ccccc32)C[C@@H]1O (stereo partly drawn) [Compound 139] . State its measured IC50.
Result: > 0.2 µM

Query: Consider the compound NS(=O)(=O)OC[C@H]1[C@H](F)[C@@H](Nc2ncncc2C(=O)c2cc3c(s2)OC[C@@]32NCCc3ccccc32)C[C@@H]1O [Compound 140] . State its measured IC50.
Result: > 0.2 µM

Query: Consider the compound NS(=O)(=O)OC[C@H]1[C@H](F)[C@@H](Nc2ncncc2C(=O)c2cc3c(s2)COC[C@@]32NCCc3c(Cl)cc(Cl)cc32)C[C@@H]1O [Compound 565] . State its measured IC50.
Result: > 0.2 µM

Query: Consider the compound NS(=O)(=O)OC[C@H]1[C@H](F)[C@@H](Nc2ncncc2C(=O)c2cc3c(s2)CCC32NCC3(CC3)c3ccc(Cl)cc32)C[C@@H]1O (stereo partly drawn) [Compound 165] . State its measured IC50.
Result: 0.05 to 0.2 µM
